# Species on record: Rattus norvegicus
# measurement_protocol: Ratio of Ki for adrenergic receptor alpha1 to Ki for 5HT1A receptor in CRL:CD(SD)BR-COBS rat brain
assay_endpoint: Ratio Ki

Check out these entries, answers already filled in.
>  <smiles_repr>
c1ccc(N2CCN(CCCSc3nc4ccccc4o3)CC2)nc1

>  <Ratio Ki>
61

$$$$
>  <smiles_repr>
O=[N+]([O-])c1ccccc1N1CCN(CCSc2nc3ccccc3s2)CC1

>  <Ratio Ki>
> 5.87

$$$$
>  <smiles_repr>
COc1ccccc1N1CCN(CCCCSc2nc3ccccc3s2)CC1

>  <Ratio Ki>
61

$$$$
>  <smiles_repr>
COc1ccccc1N1CCN(CCCCCCSc2nc3ccccc3s2)CC1

>  <Ratio Ki>
53

$$$$
>  <smiles_repr>
c1cnc(N2CCN(CCCSc3nc4ccccc4s3)CC2)nc1

>  <Ratio Ki>
131

$$$$

Item `COc1ccccc1N1CCN(CCCSc2nc3cc(Cl)ccc3s2)CC1` : provide Ratio Ki 22

Answer with the recorded Ratio Ki of `COc1ccccc1N1CCN(CCCSc2nc3ccccc3[nH]2)CC1` only. 26

# credit: ChEMBL document CHEMBL1155805
